Target: EZH2 within the PRC2 complex (Homo sapiens)
Construct: FLAG; made in house; host or cells: Sf9 cells
Assay: Assay Protocol 2: EZH2 methyltransferase scintillation proximity assay, biotinylated histone H3 peptide substrate
Type: biochemical
Conditions: SPA, 3H-SAM, biotinylated unmethylated histone H3K27 peptide substrate, 5-member PRC2 complex
measurement_kind: IC50 (nM)
Please give a number only; it is taken to be in nM.

[
  {
    "query_smiles": "CCN(c1cccc2c1C/C=C/CCc1cc(C)[nH]c(=O)c1CNC2=O)C1CCN(CCC(F)(F)F)CC1",
    "measurement_kind": "IC50",
    "test_result": 200
  },
  {
    "query_smiles": "CCN(c1cccc2c1C/C=C/CCc1cc(C)[nH]c(=O)c1CNC2=O)[C@H]1CC[C@@H](O)CC1",
    "measurement_kind": "IC50",
    "test_result": 158
  },
  {
    "query_smiles": "CCOC(=O)C(C)(C)N1CCC(N(CC)c2cccc3c2C/C=C/CCc2cc(C)[nH]c(=O)c2CNC3=O)CC1",
    "measurement_kind": "IC50",
    "test_result": 251
  }
]

For the compound CCN(c1cccc2c1CC=CCc1cc(C)[nH]c(=O)c1CNC2=O)C1CCNCC1 , what IC50 is on record?
10000

---

Molecular target: EZH2 within the PRC2 complex (Homo sapiens, UniProt Q15910)
Construct: FLAG; made in house; host or cells: Sf9 cells
Sequence (Q15910 whole entry): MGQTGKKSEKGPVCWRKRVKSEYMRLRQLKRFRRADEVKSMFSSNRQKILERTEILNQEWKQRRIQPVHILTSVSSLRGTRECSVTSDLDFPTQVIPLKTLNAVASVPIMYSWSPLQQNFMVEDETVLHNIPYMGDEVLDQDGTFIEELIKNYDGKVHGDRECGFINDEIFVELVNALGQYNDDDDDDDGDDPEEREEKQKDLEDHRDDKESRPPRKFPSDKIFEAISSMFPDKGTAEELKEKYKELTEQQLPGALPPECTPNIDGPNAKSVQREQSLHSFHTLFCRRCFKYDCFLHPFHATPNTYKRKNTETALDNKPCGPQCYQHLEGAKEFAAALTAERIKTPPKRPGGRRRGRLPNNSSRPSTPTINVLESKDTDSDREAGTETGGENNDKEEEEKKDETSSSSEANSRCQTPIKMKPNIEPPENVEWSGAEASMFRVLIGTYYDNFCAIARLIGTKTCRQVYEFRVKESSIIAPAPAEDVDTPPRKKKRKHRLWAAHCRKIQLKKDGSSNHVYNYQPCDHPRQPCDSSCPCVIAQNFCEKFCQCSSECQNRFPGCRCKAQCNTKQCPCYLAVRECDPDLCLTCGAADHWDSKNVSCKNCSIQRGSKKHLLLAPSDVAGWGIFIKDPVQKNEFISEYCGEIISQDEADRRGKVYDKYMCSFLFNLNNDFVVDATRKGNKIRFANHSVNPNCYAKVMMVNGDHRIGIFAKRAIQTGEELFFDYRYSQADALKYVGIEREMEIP
Sequence (O75530 whole entry partner): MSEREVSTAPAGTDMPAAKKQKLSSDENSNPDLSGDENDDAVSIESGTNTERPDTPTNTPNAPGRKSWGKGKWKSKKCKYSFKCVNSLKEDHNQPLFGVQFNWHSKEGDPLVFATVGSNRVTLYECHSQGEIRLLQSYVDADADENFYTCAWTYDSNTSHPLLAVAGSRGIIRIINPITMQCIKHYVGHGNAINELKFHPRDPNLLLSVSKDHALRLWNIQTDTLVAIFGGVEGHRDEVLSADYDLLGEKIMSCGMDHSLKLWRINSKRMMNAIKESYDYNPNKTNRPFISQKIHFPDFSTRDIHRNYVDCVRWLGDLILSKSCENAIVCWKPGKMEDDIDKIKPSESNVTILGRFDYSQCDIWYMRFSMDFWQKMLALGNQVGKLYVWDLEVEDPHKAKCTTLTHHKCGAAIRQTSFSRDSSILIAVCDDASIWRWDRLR
Sequence (Q15022 whole entry partner): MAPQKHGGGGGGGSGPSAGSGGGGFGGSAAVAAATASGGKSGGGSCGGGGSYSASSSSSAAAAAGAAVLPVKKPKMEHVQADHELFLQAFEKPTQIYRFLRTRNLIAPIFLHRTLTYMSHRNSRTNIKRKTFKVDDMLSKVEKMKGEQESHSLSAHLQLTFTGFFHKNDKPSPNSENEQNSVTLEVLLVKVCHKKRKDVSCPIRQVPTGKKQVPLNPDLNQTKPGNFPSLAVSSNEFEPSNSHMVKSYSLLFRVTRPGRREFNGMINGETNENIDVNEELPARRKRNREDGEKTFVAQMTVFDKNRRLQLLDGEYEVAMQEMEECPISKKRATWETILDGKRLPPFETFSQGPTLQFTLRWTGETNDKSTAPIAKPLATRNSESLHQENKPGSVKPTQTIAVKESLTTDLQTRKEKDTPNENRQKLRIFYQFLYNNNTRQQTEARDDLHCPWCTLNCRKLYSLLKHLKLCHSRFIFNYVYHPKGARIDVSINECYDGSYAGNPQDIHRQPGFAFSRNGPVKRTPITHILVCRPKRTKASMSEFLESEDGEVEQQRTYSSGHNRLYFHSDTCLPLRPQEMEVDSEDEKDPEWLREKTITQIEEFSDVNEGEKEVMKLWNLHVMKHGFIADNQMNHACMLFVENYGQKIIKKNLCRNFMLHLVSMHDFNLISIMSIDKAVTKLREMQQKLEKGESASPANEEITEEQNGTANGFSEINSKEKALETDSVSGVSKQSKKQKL
Sequence (Q09028 whole entry partner): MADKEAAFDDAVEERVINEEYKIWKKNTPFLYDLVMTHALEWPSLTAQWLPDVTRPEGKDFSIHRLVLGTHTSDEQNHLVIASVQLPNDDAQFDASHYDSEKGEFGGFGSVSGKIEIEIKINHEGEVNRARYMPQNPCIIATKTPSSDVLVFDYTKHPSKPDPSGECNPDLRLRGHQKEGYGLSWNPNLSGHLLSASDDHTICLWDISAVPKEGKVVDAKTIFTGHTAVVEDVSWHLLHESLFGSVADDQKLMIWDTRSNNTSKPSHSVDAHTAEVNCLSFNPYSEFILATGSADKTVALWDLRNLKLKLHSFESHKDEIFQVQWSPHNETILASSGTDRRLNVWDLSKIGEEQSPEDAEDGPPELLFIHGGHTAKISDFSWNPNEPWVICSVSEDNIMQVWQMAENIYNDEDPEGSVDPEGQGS
Sequence (Q6ZN18 whole entry partner): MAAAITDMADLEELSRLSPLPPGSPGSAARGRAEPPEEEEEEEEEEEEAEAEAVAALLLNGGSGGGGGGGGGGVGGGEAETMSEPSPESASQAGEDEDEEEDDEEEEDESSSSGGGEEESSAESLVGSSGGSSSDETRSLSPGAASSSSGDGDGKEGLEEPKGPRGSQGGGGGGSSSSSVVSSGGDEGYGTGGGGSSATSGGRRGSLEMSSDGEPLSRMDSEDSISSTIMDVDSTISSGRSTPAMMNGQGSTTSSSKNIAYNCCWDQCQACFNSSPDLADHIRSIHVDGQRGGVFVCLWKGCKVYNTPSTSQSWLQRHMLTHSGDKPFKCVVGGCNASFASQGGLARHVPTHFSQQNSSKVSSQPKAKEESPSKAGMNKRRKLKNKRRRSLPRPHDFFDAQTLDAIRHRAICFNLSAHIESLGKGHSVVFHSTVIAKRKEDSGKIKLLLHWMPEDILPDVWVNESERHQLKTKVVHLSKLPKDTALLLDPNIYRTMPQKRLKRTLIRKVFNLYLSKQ
Experiment: Assay Protocol 1: EZH2 methyltransferase scintillation proximity assay, mononucleosome substrate
Type: biochemical
Conditions: Assay Protocol 1; SPA, 3H-SAM, Histone H3 of mononucleosome purified from HeLa cells; 5-member PRC2 complex; read-out: EZH2 IC50
Counter-ions that a name gives are not always drawn.
measurement_kind: pIC50
# pIC50: negative log10 of molar concentration; output just the value

[
  {
    "molecule": "CCN(c1cccc2c1C/C=C\\CC(C)c1cc(C)[nH]c(=O)c1CNC2=O)C1CCOCC1 (stereo not shown)",
    "pIC50": 5.20
  },
  {
    "molecule": "Cc1cc2c(c(=O)[nH]1)CNC(=O)c1cc(Cl)cc(O[C@H]3CC[C@H](N)CC3)c1C/C=C/CC2 [Example 1, hydrochloride]",
    "pIC50": 7.49
  },
  {
    "molecule": "CCN(c1cccc2c1C/C=C/CCc1cc(C)[nH]c(=O)c1CNC2=O)C1CCNCC1",
    "pIC50": 7.89
  },
  {
    "molecule": "CCN(c1cccc2c1CCCCC(C)c1cc(C)[nH]c(=O)c1CNC2=O)C1CCOCC1 (stereo not shown)",
    "pIC50": 6.20
  },
  {
    "molecule": "CCN(c1cccc2c1C/C=C\\CCCc1cc(C)[nH]c(=O)c1CNC2=O)C1CCOCC1",
    "pIC50": 7.00
  }
]

Tell me reported pIC50 for CCN(c1cccc2c1C/C=C/CCc1cc(C)[nH]c(=O)c1CNC2=O)C1CCN(CCC(F)(F)F)CC1 , tested with EZH2 within the PRC2 complex (Homo sapiens, UniProt Q15910).
7.20

Recorded pIC50 for CCN(c1cccc2c1CCCCCCc1cc(C)[nH]c(=O)c1CNC2=O)C1CCOCC1 with EZH2 within the PRC2 complex (Homo sapiens, UniProt Q15910), please?
7.60

I'm curious: which pIC50 was measured for CCN(c1cccc2c1C/C=C/CCc1cc(C)[nH]c(=O)c1CNC2=O)C1CCN(C)CC1 tested on EZH2 within the PRC2 complex (Homo sapiens, UniProt Q15910)?
7.40

Return pIC50 measured with EZH2 within the PRC2 complex (Homo sapiens, UniProt Q15910) given this molecule: CCN(c1cccc2c1C/C=C/CC(C)c1cc(C)[nH]c(=O)c1CNC2=O)C1CCOCC1 (stereo not shown)
6.90
